Parameter: viability at 24 h, 50 µM. Scope: all listed entries.
# Assay Overview: in vitro
# Type: cell-based, rat
# Run Conditions: rat
A number alone suffices; assume %.

### Prompt Item CCCCCCCC/C=C\CCCCCCCC(=O)O has what recorded viability at 24 h, 50 µM?
### Response 89.8

### Prompt Item CCCCC/C=C\C/C=C\CCCCCCCC(=O)O has what recorded viability at 24 h, 50 µM?
### Response 87.2

###

# Assay Overview: in vitro
# Assay type: cell-based, human
# Run Conditions: human
Observed Property: viability at 24 h, 50 µM

### Prompt Item CCCCCCCC/C=C\CCCCCCCC(=O)O has what recorded viability at 24 h, 50 µM?
### Response 87.9%
